Let's look at some molecules and their measured FACS Cell Binding.
Biological target: T1, human PRLR on HEK293/hPRLR cells (Homo sapiens, UniProt P16471)
T1 construct: HA; expressed in transfected cells; host or cells: HEK293
T1 sequence (P16471 25-622): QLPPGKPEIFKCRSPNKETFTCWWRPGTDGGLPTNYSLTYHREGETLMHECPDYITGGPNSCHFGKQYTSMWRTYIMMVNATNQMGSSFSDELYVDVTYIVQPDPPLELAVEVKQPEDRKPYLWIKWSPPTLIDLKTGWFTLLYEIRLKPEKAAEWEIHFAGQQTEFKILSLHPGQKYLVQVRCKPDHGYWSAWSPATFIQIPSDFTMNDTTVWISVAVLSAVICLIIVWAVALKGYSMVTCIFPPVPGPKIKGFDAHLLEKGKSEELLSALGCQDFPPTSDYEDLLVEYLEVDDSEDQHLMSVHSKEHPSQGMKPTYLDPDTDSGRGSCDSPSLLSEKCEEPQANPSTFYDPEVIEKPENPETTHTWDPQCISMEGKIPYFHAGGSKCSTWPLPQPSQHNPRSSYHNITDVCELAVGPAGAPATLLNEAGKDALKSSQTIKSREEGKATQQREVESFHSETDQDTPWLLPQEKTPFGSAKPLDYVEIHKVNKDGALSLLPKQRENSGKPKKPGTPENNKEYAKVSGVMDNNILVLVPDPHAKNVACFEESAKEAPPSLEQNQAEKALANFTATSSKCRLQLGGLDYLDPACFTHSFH
Assay: FACS cell surface binding

molecule: H1H6967N: anti-PRLR antibody, human IgG1 Fc form of H2M6967N of Table 1; HCVR/LCVR SEQ ID NOs 354/362 (antibody, V domains shown, human IgG1 Fc) VH: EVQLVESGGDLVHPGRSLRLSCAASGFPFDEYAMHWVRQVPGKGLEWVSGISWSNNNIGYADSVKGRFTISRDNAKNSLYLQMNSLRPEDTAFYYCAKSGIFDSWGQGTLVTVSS VL: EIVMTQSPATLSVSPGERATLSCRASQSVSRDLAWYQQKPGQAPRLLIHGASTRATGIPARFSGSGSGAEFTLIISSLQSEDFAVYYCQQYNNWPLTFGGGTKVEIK
result: 38 Fold Above Background
//
molecule: H1H6975N: anti-PRLR antibody, human IgG1 Fc form of H2M6975N of Table 1; HCVR/LCVR SEQ ID NOs 370/378 (antibody, V domains shown, human IgG1 Fc) VH: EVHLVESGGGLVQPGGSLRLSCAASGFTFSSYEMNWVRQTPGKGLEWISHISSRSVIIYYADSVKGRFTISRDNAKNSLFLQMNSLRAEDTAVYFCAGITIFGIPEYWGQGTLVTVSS VL: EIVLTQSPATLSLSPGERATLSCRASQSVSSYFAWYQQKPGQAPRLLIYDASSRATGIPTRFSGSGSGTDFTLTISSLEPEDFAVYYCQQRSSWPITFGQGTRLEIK
result: 38 Fold Above Background
//
molecule: H1H6793P: fully human anti-PRLR antibody, human IgG1 Fc; HCVR/LCVR SEQ ID NOs 146/154 (antibody, V domains shown) VH: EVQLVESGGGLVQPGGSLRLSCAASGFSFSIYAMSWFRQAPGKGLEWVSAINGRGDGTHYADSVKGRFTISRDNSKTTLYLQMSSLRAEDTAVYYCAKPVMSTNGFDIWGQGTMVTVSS VL: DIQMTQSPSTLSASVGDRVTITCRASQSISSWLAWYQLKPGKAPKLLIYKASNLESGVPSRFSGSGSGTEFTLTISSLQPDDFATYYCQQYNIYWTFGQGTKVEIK
result: 2 Fold Above Background
//
molecule: H1H6782P: fully human anti-PRLR antibody, non-blocking; HCVR/LCVR SEQ ID NOs 66/74 (antibody, V domains shown) VH: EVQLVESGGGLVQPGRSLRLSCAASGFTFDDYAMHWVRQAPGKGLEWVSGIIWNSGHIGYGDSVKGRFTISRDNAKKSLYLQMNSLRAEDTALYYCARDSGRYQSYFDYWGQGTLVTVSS VL: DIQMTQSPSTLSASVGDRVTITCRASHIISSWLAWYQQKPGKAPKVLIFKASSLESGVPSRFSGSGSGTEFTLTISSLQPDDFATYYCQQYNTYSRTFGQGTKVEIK
result: 41 Fold Above Background
//
molecule: H1H6785P: fully human anti-PRLR antibody, human IgG1 Fc; HCVR/LCVR SEQ ID NOs 98/106 (antibody, V domains shown) VH: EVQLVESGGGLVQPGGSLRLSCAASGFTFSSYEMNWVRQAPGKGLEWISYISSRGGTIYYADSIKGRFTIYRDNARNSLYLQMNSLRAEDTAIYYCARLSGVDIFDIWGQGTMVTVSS VL: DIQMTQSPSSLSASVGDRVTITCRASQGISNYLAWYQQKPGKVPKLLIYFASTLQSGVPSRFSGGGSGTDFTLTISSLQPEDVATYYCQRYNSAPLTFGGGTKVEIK
result: 37 Fold Above Background
//
molecule: H1H6958N2: anti-PRLR antibody, receptor blocking, human IgG1 Fc form of H2M6958N2 of Table 1; HCVR/LCVR SEQ ID NOs 290/298 (antibody, V domains shown) VH: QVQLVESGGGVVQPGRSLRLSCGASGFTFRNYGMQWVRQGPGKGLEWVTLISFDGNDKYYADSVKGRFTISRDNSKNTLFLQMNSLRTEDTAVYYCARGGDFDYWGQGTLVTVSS VL: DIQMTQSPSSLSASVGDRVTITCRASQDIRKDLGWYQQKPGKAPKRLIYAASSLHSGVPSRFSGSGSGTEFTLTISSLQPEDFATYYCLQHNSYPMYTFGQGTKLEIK
result: 35 Fold Above Background

## Input I'd like to know its FACS Cell Binding. The molecule in question is H1H6795P: fully human anti-PRLR antibody, human IgG1 Fc; HCVR/LCVR SEQ ID NOs 162/170 (antibody, V domains shown) VH: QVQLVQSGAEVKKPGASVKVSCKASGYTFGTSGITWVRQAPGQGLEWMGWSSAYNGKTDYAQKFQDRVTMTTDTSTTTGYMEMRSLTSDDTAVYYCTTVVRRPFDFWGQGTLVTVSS VL: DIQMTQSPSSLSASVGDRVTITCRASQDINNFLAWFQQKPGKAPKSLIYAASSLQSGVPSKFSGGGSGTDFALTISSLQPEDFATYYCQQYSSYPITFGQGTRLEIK
## Output 1 Fold Above Background

## Input I'd like to know its FACS Cell Binding. The molecule in question is H1H6762P: fully human anti-PRLR antibody, human IgG1 Fc; HCVR/LCVR SEQ ID NOs 2/10 (antibody, V domains shown) VH: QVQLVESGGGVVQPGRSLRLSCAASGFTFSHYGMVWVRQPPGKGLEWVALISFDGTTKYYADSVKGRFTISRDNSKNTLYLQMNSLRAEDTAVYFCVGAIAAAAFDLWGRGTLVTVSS VL: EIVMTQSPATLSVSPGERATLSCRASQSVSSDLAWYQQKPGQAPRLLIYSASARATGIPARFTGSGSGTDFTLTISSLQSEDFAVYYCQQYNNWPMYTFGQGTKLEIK
## Output 36 Fold Above Background

Just for reference, patent US10925971B2 is where these values come from.
